Answer each item with its documented shrunken log2 fold change.
Test system: Escherichia coli TOP10
Protocol Text: shrunken log2 fold change of peptide-encoding DNA abundance (4.5 h post-induction vs induction); higher = less antimicrobial activity (less host growth inhibition)
Run Conditions: time post-induction: 4.5 h; library: site-saturation at positions 5, 18, 19, 20
# print the numeric value only

Query: So what does the record say about shrunken log2 fold change for RRIRHRPPRLPRPRPRPLWDPRP ?
Response: -0.15

Query: Reported shrunken log2 fold change for RRIRQRPPRLPRPRPRPPTGPRP : what is it?
Response: 0.0124

Query: Tell me the measured shrunken log2 fold change of RRIRSRPPRLPRPRPRPECRPRP , please.
Response: 0.266

Query: For the sequence shown here, RRIRMRPPRLPRPRPRPEAGPRP , give the reported shrunken log2 fold change.
Response: 2.36

Query: Param item = RRIRIRPPRLPRPRPRPLWWPRP ; retrieve measured shrunken log2 fold change.
Response: 0.266

Query: What value of shrunken log2 fold change has been reported for the following sequence? RRIRYRPPRLPRPRPRPNCVPRP
Response: -0.0116

Query: Given the sequence RRIRARPPRLPRPRPRPMSCPRP , what is its reported shrunken log2 fold change?
Response: -0.114

Query: Value lookup for shrunken log2 fold change; key = RRIRQRPPRLPRPRPRPVRLPRP
Response: -0.0825

* * *

Please provide measured shrunken log2 fold change for the entries that follow.
System: Escherichia coli TOP10
Protocol Text: shrunken log2 fold change of peptide-encoding DNA abundance (4.5 h post-induction vs induction); higher = less antimicrobial activity (less host growth inhibition)
Run Conditions: time post-induction: 4.5 h; library: site-saturation at positions 5, 18, 19, 20
Please respond with just the number, no unit label.

Query: Quick one: shrunken log2 fold change for RRIRYRPPRLPRPRPRPAINPRP ?
Response: -0.051

Query: Sample RRIRIRPPRLPRPRPRPPVIPRP — what was its shrunken log2 fold change?
Response: -0.108

Query: I would be grateful if you could share the reported shrunken log2 fold change for RRIRFRPPRLPRPRPRPHNLPRP .
Response: -0.104

Query: Which shrunken log2 fold change reading was recorded for the sequence RRIRWRPPRLPRPRPRPQTHPRP ?
Response: 1

Query: Given the sequence RRIRPRPPRLPRPRPRPVFYPRP , what is its reported shrunken log2 fold change?
Response: -0.316

Query: May I ask what shrunken log2 fold change has been recorded for RRIRMRPPRLPRPRPRPCETPRP ?
Response: -0.263

Query: Can you share its shrunken log2 fold change? I mean this sequence: RRIRNRPPRLPRPRPRPRHGPRP
Response: -0.0314

Query: Quick one: shrunken log2 fold change of RRIRYRPPRLPRPRPRPILLPRP ?
Response: -0.322

Query: Can you share its shrunken log2 fold change? I mean this sequence: RRIRYRPPRLPRPRPRPESAPRP
Response: -0.146

Query: Look up shrunken log2 fold change: RRIRFRPPRLPRPRPRPDGAPRP
Response: -0.0432

Query: Dear colleague, I am looking for the recorded shrunken log2 fold change of the following sequence: RRIRARPPRLPRPRPRPIQTPRP
Response: -0.0208

Query: I am curious: what shrunken log2 fold change value has been reported for RRIRLRPPRLPRPRPRPKMGPRP ?
Response: 0.0108

Query: Need shrunken log2 fold change of RRIRARPPRLPRPRPRPSDWPRP , thanks.
Response: 0.402

Query: Return reported shrunken log2 fold change; argument: RRIRQRPPRLPRPRPRPLPKPRP
Response: -0.226

Query: What value of measured shrunken log2 fold change is listed for RRIRMRPPRLPRPRPRPWAAPRP ?
Response: 0.502

Query: Recorded shrunken log2 fold change for RRIRGRPPRLPRPRPRPKMRPRP , please?
Response: 1.33

Query: Quick check: shrunken log2 fold change of RRIRCRPPRLPRPRPRPPGPPRP ?
Response: 0.337

Query: Please give the measured shrunken log2 fold change for this sequence: RRIRARPPRLPRPRPRPDHMPRP
Response: -0.328

Query: So what does the record say about shrunken log2 fold change for RRIRLRPPRLPRPRPRPKAKPRP ?
Response: 0.0705

Query: Fill in the blank: the reported shrunken log2 fold change of RRIRPRPPRLPRPRPRPLSAPRP is ____.
Response: 0.281

Query: What value of shrunken log2 fold change has been recorded for this entry: RRIRSRPPRLPRPRPRPIGIPRP
Response: -0.67

Query: // shrunken log2 fold change lookup, key: RRIRQRPPRLPRPRPRPVVWPRP
Response: 0.586

Query: Which shrunken log2 fold change reading was recorded for the sequence RRIRPRPPRLPRPRPRPPPWPRP ?
Response: 0.588

Query: What value of shrunken log2 fold change has been reported for the following sequence? RRIRDRPPRLPRPRPRPTQKPRP
Response: 0.268

Query: Suppose we examine the sequence RRIRLRPPRLPRPRPRPMKYPRP ; what shrunken log2 fold change value has been reported?
Response: -0.236

Query: Would you mind telling me what shrunken log2 fold change value was observed for RRIRKRPPRLPRPRPRPIQNPRP ?
Response: 0.151

Query: Please give the measured shrunken log2 fold change for this sequence: RRIRIRPPRLPRPRPRPASEPRP
Response: 0.149

Query: Any idea what shrunken log2 fold change was measured for RRIRTRPPRLPRPRPRPDMYPRP ?
Response: -0.235

Query: Endpoint output: shrunken log2 fold change of RRIRRRPPRLPRPRPRPIQDPRP . Value?
Response: 2.65

Query: Query (sequence): RRIRHRPPRLPRPRPRPLAWPRP ; field requested: shrunken log2 fold change
Response: 0.198

Query: What does the record list as shrunken log2 fold change for RRIRWRPPRLPRPRPRPIRNPRP ?
Response: -0.334

Query: Requested field: shrunken log2 fold change. Item: RRIRDRPPRLPRPRPRPNHGPRP
Response: 1.15

* * *

System: Escherichia coli TOP10;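 note: peptides expressed intracellularly from a pBAD plasmid library in pooled LB shake-flask culture, induced with 0.3% L-arabinose, DNA abundance read by NGS, three biological replicates, DESeq2 with apeglm shrinkage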
Protocol Text: shrunken log2 fold change of peptide-encoding DNA abundance (4.5 h post-induction vs induction); higher = less antimicrobial activity (less host growth inhibition)
Run Conditions: time post-induction: 4.5 h; library: site-saturation at positions 5, 18, 19, 20
Please enter 1 where shrunken log2 fold change is greater than or equal to -0.002, and 0 where it is lower.

Query: Confirm if shrunken log2 fold change reported for the sequence RRIRRRPPRLPRPRPRPAWQPRP is -0.002 or above.
Response: 1

Query: Please indicate if the recorded shrunken log2 fold change for RRIRERPPRLPRPRPRPITGPRP meets or exceeds -0.002.
Response: 0

Query: # bool: shrunken log2 fold change of RRIRQRPPRLPRPRPRPMSSPRP >= -0.002
Response: 0

Query: Hi, just wondering whether RRIRDRPPRLPRPRPRPRDTPRP shows shrunken log2 fold change of -0.002 or higher.
Response: 1

Query: Has RRIRLRPPRLPRPRPRPKLKPRP a recorded shrunken log2 fold change greater than or equal to -0.002?
Response: 1

Query: # check: shrunken log2 fold change of RRIRDRPPRLPRPRPRPGGYPRP is greater than or equal to -0.002
Response: 1

Query: Check this sequence for shrunken log2 fold change at or above -0.002: RRIRTRPPRLPRPRPRPQCKPRP
Response: 0

Query: Tell me whether shrunken log2 fold change is at least -0.002 here: RRIRIRPPRLPRPRPRPSQQPRP
Response: 0

Query: Quick check, shrunken log2 fold change >= -0.002? RRIRNRPPRLPRPRPRPPENPRP
Response: 1

Query: Could you tell me if the measured shrunken log2 fold change of RRIRPRPPRLPRPRPRPIDMPRP reaches -0.002 or more?
Response: 0

Query: shrunken log2 fold change >= -0.002 for RRIRTRPPRLPRPRPRPKNEPRP ?
Response: 1

Query: Assess whether reported shrunken log2 fold change for RRIRTRPPRLPRPRPRPNSHPRP sits at -0.002 or higher.
Response: 0

Query: Entry RRIRRRPPRLPRPRPRPHLQPRP : is its shrunken log2 fold change no less than -0.002?
Response: 0

Query: Decide: shrunken log2 fold change of RRIRARPPRLPRPRPRPLNRPRP >= -0.002?
Response: 1

Query: State whether the measured shrunken log2 fold change reaches -0.002, counting equality as reaching it, for RRIRYRPPRLPRPRPRPHDCPRP
Response: 0

Query: Is the recorded value of shrunken log2 fold change equal to or greater than -0.002 for this sequence? RRIRMRPPRLPRPRPRPSLRPRP
Response: 1

Query: Answer whether shrunken log2 fold change of RRIRQRPPRLPRPRPRPKKYPRP is greater than or equal to -0.002.
Response: 0

Query: Evaluate RRIRPRPPRLPRPRPRPEEDPRP : shrunken log2 fold change at minimum -0.002?
Response: 1

Query: Quick check: does RRIRVRPPRLPRPRPRPGWAPRP have shrunken log2 fold change greater than or equal to -0.002?
Response: 1

Query: Hello, I need to know if RRIRIRPPRLPRPRPRPDEEPRP has measured shrunken log2 fold change not below -0.002. Thanks!
Response: 1

Query: Is reported shrunken log2 fold change greater than or equal to -0.002 here: RRIRGRPPRLPRPRPRPWARPRP
Response: 1

Query: # bool: shrunken log2 fold change of RRIRFRPPRLPRPRPRPRLHPRP >= -0.002
Response: 1

Query: Is it the case that RRIRPRPPRLPRPRPRPHEWPRP has shrunken log2 fold change reaching or exceeding -0.002?
Response: 1

Query: Please check the record RRIRCRPPRLPRPRPRPKGRPRP and state if its shrunken log2 fold change is at or above -0.002.
Response: 0

Query: Is reported shrunken log2 fold change greater than or equal to -0.002 here: RRIRSRPPRLPRPRPRPQVYPRP
Response: 0

Query: Reported shrunken log2 fold change reaches at least -0.002 for RRIRVRPPRLPRPRPRPVEKPRP ?
Response: 1

Query: Confirm if shrunken log2 fold change reported for the sequence RRIRVRPPRLPRPRPRPGCTPRP is -0.002 or above.
Response: 0

Query: Is reported shrunken log2 fold change greater than or equal to -0.002 here: RRIRMRPPRLPRPRPRPSIDPRP
Response: 1

Query: For this sequence, is measured shrunken log2 fold change -0.002 or higher? RRIRRRPPRLPRPRPRPVWKPRP
Response: 1

Query: Identify whether the reported shrunken log2 fold change of the following sequence is -0.002 or greater: RRIRKRPPRLPRPRPRPHGMPRP
Response: 0

Query: API: above_or_equal(metric=shrunken log2 fold change, cutoff=-0.002) for item RRIRQRPPRLPRPRPRPQLEPRP
Response: 1

Query: Assess whether reported shrunken log2 fold change for RRIRPRPPRLPRPRPRPMRDPRP sits at -0.002 or higher.
Response: 1

Query: Could you please find out whether RRIRGRPPRLPRPRPRPHHTPRP has shrunken log2 fold change that meets -0.002 or exceeds it?
Response: 0

Query: Check if shrunken log2 fold change >= -0.002 (inclusive). Item: RRIRARPPRLPRPRPRPQEFPRP
Response: 0

Query: Given RRIRCRPPRLPRPRPRPAYVPRP , state whether its shrunken log2 fold change is at least -0.002.
Response: 0

Query: Would you say RRIRTRPPRLPRPRPRPMKYPRP shows shrunken log2 fold change at minimum -0.002?
Response: 0

Query: Please check the record RRIRDRPPRLPRPRPRPVNQPRP and state if its shrunken log2 fold change is at or above -0.002.
Response: 1

Query: Has RRIRIRPPRLPRPRPRPRAEPRP a recorded shrunken log2 fold change greater than or equal to -0.002?
Response: 0

Query: # bool: shrunken log2 fold change of RRIRIRPPRLPRPRPRPIQQPRP >= -0.002
Response: 0

Query: Hi, just wondering whether RRIRPRPPRLPRPRPRPFEVPRP shows shrunken log2 fold change of -0.002 or higher.
Response: 1

Query: # check: shrunken log2 fold change of RRIRKRPPRLPRPRPRPQDDPRP is greater than or equal to -0.002
Response: 1

Query: Please indicate if the recorded shrunken log2 fold change for RRIRKRPPRLPRPRPRPWRDPRP meets or exceeds -0.002.
Response: 1

Query: Reported shrunken log2 fold change reaches at least -0.002 for RRIRCRPPRLPRPRPRPFWKPRP ?
Response: 0

Query: Does the sequence RRIRCRPPRLPRPRPRPHEKPRP have recorded shrunken log2 fold change that is -0.002 or more?
Response: 0

Query: Is shrunken log2 fold change for RRIRKRPPRLPRPRPRPIWAPRP at or above -0.002?
Response: 0

Query: Decide: is the reported value of shrunken log2 fold change for RRIRYRPPRLPRPRPRPICQPRP equal to or greater than -0.002?
Response: 0

Query: Given RRIRNRPPRLPRPRPRPECDPRP , state whether its shrunken log2 fold change is at least -0.002.
Response: 1

Query: Assess whether reported shrunken log2 fold change for RRIRMRPPRLPRPRPRPETCPRP sits at -0.002 or higher.
Response: 1

Query: Could you please find out whether RRIRERPPRLPRPRPRPENVPRP has shrunken log2 fold change that meets -0.002 or exceeds it?
Response: 0

Query: Answer whether shrunken log2 fold change of RRIRRRPPRLPRPRPRPIWRPRP is greater than or equal to -0.002.
Response: 1

Query: Decide: shrunken log2 fold change of RRIRTRPPRLPRPRPRPVTIPRP >= -0.002?
Response: 0

Query: Could you tell me if the measured shrunken log2 fold change of RRIRARPPRLPRPRPRPTQRPRP reaches -0.002 or more?
Response: 1

Query: Threshold query (shrunken log2 fold change >= -0.002) on RRIRWRPPRLPRPRPRPYFGPRP
Response: 0

Query: Could you tell me if the measured shrunken log2 fold change of RRIRARPPRLPRPRPRPNFAPRP reaches -0.002 or more?
Response: 1

Query: For this sequence, is measured shrunken log2 fold change -0.002 or higher? RRIRTRPPRLPRPRPRPNNNPRP
Response: 0

Query: In plain terms: is recorded shrunken log2 fold change at least -0.002 for RRIRGRPPRLPRPRPRPFEFPRP ?
Response: 0

Query: Given the entry RRIRFRPPRLPRPRPRPTAFPRP , answer whether its shrunken log2 fold change meets or surpasses -0.002.
Response: 1

Query: Check if shrunken log2 fold change >= -0.002 (inclusive). Item: RRIRARPPRLPRPRPRPAEPPRP
Response: 1

Query: Item RRIRWRPPRLPRPRPRPCMCPRP with shrunken log2 fold change of -0.002 or above?
Response: 0

Query: Reported shrunken log2 fold change reaches at least -0.002 for RRIRYRPPRLPRPRPRPFCKPRP ?
Response: 0

Query: Does the sequence RRIRYRPPRLPRPRPRPNMCPRP have recorded shrunken log2 fold change that is -0.002 or more?
Response: 1

Query: Textbook exercise: given the entry RRIRARPPRLPRPRPRPCLCPRP , state whether its shrunken log2 fold change is greater than or equal to -0.002.
Response: 0

Query: In plain terms: is recorded shrunken log2 fold change at least -0.002 for RRIRVRPPRLPRPRPRPCVAPRP ?
Response: 1
